Cited source: paper PMC8041284

- Target or system: BTK (Homo sapiens)
- Assay text: biochemical
- Measurement setup: read-out: BTK inhibition (%), 0.75 uM BTK, […] probe 3l, 15 min preincubation
Property measured: inhibition at 10 µM

Examples with their reported inhibition at 10 µM follow.
Chemical smiles | inhibition at 10 µM
C[C@@H]1O[C@@H](O[C@H]2[C@H](Oc3cc(O)c(C(=O)CCc4ccc(O)cc4)c(O)c3)O[C@H](CO)[C@@H](O)[C@@H]2O)[C@H](O)[C@H](O)[C@H]1O | 14.8%
C[C@H](O)[C@H](O)c1cnc2nc(N)[nH]c(=O)c2n1 | 6.8%
CC[C@@](C)(Nc1ccnc(-c2c[nH]c3ncccc23)n1)C(=O)NCC(F)(F)F | 2.1%
CCCCCCCCCCCCCCCCCCCC(=O)O | 9.3%

// next entry
Task: Any idea what its inhibition at 10 µM is? The compound is `Nc1ccn([C@@H]2CS[C@H](CO)O2)c(=O)n1`
Result: 14%

----------
- Target or system: BTK (Homo sapiens)
- Assay text: biochemical
- Measurement setup: read-out: BTK inhibition (%), 0.75 uM BTK, […] probe 3l, 15 min preincubation
Property measured: inhibition at 10 µM (%)
Supply the numeric figure in %, leaving out any unit text.

Task: Any idea what its inhibition at 10 µM is? The compound is Nc1ncnc2n[nH]c(Nc3ccc(F)cc3)c12 [PCM-0095728]
Result: 37.9

----------
- Target or system: UniProtKB Q06187
- Assay text: biochemical
- Measurement setup: read-out: BTK inhibition (%), 0.75 uM BTK, […] probe 3l, 15 min preincubation
Below, each of the compounds is paired with its reported inhibition at 10 µM value.
Supply the numeric figure in %, leaving out any unit text.

Compound | Target or system | Measurement
CN[C@H](CC(C)C)C(=O)N[C@H]1C(=O)N[C@@H](CC(N)=O)C(=O)N[C@H]2C(=O)N[C@H]3C(=O)N[C@H](C(=O)N[C@H](C(=O)O)c4cc(O)cc(O)c4-c4cc3ccc4O)[C@H](O)c3ccc(c(Cl)c3)Oc3cc2cc(c3O[C@@H]2O[C@H](CO)[C@@H](O)[C@H](O)[C@H]2O[C@H]2C[C@](C)(N)[C@H](O)[C@H](C)O2)Oc2ccc(cc2Cl)[C@H]1O [PCM-0064980] | UniProtKB Q06187 | 4.3

Task: Any idea what its inhibition at 10 µM is? The compound is COc1cccc2c1C(=O)c1c(O)c3c(c(O)c1C2=O)C[C@@](O)(C(=O)CO)C[C@@H]3O[C@H]1C[C@H](N)[C@H](O)[C@H](C)O1 [PCM-0086032]
Result: 42.8

----------
Below, each of the compounds is paired with its reported inhibition at 10 µM value.
- Target or system: BTK (Homo sapiens, UniProt Q06187)
- Sequence (Q06187 402-655 limits assumed): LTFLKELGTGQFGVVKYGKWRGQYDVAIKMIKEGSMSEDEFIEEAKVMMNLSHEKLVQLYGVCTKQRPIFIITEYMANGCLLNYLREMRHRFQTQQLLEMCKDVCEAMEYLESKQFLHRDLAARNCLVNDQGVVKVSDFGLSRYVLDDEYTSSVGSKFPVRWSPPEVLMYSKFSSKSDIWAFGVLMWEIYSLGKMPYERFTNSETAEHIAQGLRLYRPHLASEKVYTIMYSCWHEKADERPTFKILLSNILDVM
- Assay text: biochemical
- Measurement setup: read-out: BTK inhibition (%), 0.75 uM BTK, […] probe 3l, 15 min preincubation
Supply the numeric figure in %, leaving out any unit text.

Examples with their reported inhibition at 10 µM follow.
Compound | inhibition at 10 µM [%]
CC(C)[C@H](N)C(=O)OCC(CO)OCn1cnc2c(=O)[nH]c(N)nc21 (some centres unmarked) | -2.3
CC1=C(CC(=O)O)c2cc(F)ccc2/C1=C\c1ccc([S+](C)[O-])cc1 (centres unmarked) | 8.3
O=C(O)CCCN1CCC(O[C@@H](c2ccc(Cl)cc2)c2ccccn2)CC1 | -17.9
O=c1cc(-c2ccccc2)oc2cc(O[C@@H]3O[C@H](CO[C@@H]4O[C@H](CO)[C@@H](O)[C@H](O)[C@H]4O)[C@@H](O)[C@H](O)[C@H]3O)c(O)c(O)c12 | 30.9
CC(=O)OCC1=C(C(=O)O)N2C(=O)[C@@H](NC(=O)CSC(=NC(C)C)NC(C)C)[C@H]2SC1 | 4.7
CCn1cc(C(=O)O)c(=O)c2ccc(C)nc21 | 5.4

Task: Any idea what its inhibition at 10 µM is? The compound is CC1(C)S[C@@H]2[C@H](NC(=O)C(C(=O)O)c3ccccc3)C(=O)N2[C@H]1C(=O)O (some centres unmarked)
Result: 10.1

Task: Likewise for `CCn1cc(C(=O)O)c(=O)c2c(N)c(F)c(NC3CCCCC3)cc21` ?
Result: 5.4

----------
- Target or system: UniProt Q06187
- Assay text: biochemical
- Measurement setup: read-out: BTK inhibition (%), 0.75 uM BTK, […] probe 3l, 15 min preincubation
Below, each of the molecules is paired with its reported inhibition at 10 µM value.
Supply the numeric figure in %, leaving out any unit text.

Examples with their reported inhibition at 10 µM follow.
Molecule | inhibition at 10 µM [%]
CC(=O)N[C@@H](CS)C(=O)O [PCM-0064400] | 5.5
O=C(Nc1ccc(O)c(C(=O)O)c1)c1cccc(NC(=O)c2ccco2)c1 [PCM-0215939] | -8.5
CC(C)=CCCC(C)CC=O (stereo not drawn) [PCM-0216209] | 4.6
CNC[C@H](O)c1ccc(O)c(O)c1 [PCM-0065121] | -9.3
CC(C)NC[C@H](O)COc1ccc(CCOCC2CC2)cc1 [PCM-0214769] | 0.8

Task: Look up inhibition at 10 µM with UniProt Q06187 for this molecule: CN(CCO)CC(O)Cn1cnc2c1c(=O)n(C)c(=O)n2C (stereo not drawn) [PCM-0215123]
Result: 9.3

Task: Likewise for C[C@@H]1CC[C@@]2(OC1)O[C@H]1C[C@H]3[C@@H]4CC=C5C[C@@H](O[C@@H]6O[C@H](CO)[C@@H](O)[C@H](O[C@@H]7O[C@H](CO)[C@@H](O)[C@H](O)[C@H]7O)[C@H]6O[C@@H]6O[C@@H](C)[C@H](O)[C@@H](O)[C@H]6O)CC[C@]5(C)[C@H]4CC[C@]3(C)[C@H]1[C@@H]2C [PCM-0215006] ?
Result: -3.1

Task: Likewise for CCCCC(CC)COC(=O)C(C#N)=C(c1ccccc1)c1ccccc1 (stereo not drawn) [PCM-0215898] ?
Result: 0

Task: Likewise for CCOC(=O)Nc1ccc(NCc2ccc(F)cc2)nc1N [PCM-0065288] ?
Result: -8.6

----------
Below, each of the compounds is paired with its reported inhibition at 10 µM value.
- Target or system: BTK (Homo sapiens, UniProt Q06187)
- Assay text: biochemical
- Measurement setup: read-out: BTK inhibition (%), 0.75 uM BTK, […] probe 3l, 15 min preincubation
Supply the numeric figure in %, leaving out any unit text.

Examples with their reported inhibition at 10 µM follow.
Compound | inhibition at 10 µM (%)
O=C(NOCC1CC1)c1ccc(F)c(F)c1Nc1ccc(I)cc1Cl | 5.5
OC[C@H]1O[C@@H](c2ccc(F)c(Cc3cc4ccccc4s3)c2)[C@H](O)[C@@H](O)[C@@H]1O | 1.5
C#C[C@]1(O)CC[C@H]2[C@@H]3CCC4=CC(=O)CC[C@@H]4[C@H]3CC[C@@]21C | 3.1
NC(=O)Cc1cccc(C(=O)c2ccccc2)c1N | 11.7
O=C(/C=C\n1cnc(-c2cc(C(F)(F)F)cc(C(F)(F)F)c2)n1)N1CC(F)(F)C1 | -16.2
COc1ccc(CC(=O)Nc2nc3c(s2)CCc2ccccc2-3)cc1OC | 55.9
CN1CC[C@@H](NC(=O)Nc2ccc(C#N)cc2)C[C@@H]1c1nc2ccccc2[nH]1 | -3.9
Cc1cccc(-c2[nH]ncc2-c2ccc3ncccc3n2)n1 | 13.9
C=C[C@H]1CN2CC[C@H]1C[C@H]2[C@H](O)c1ccnc2ccc(OC)cc12 | -22.6
COC(=O)N[C@H](C(=O)N1CCC[C@H]1C(=O)Nc1ccc([C@@H]2CC[C@@H](c3ccc(NC(=O)[C@@H]4CCCN4C(=O)[C@@H](NC(=O)OC)C(C)C)cc3)N2c2ccc(C(C)(C)C)cc2)cc1)C(C)C | 18.5

Task: Any idea what its inhibition at 10 µM is? The compound is `COc1cc2c(cc1OC)[C@H]1C[C@@H](OC(=O)[C@@H](N)C(C)C)[C@H](CC(C)C)CN1CC2`
Result: -27

Task: Likewise for O=C(/C=C/c1ccccc1)NC(NC(=S)Nc1ccc(Cl)cc1)C(Cl)(Cl)Cl (stereo not shown) ?
Result: 34

----------
- Target or system: BTK (Homo sapiens, UniProt Q06187)
- Assay text: biochemical
- Measurement setup: read-out: BTK inhibition (%), 0.75 uM BTK, […] probe 3l, 15 min preincubation
Output y for inhibition at 10 µM not less than -10%; output n otherwise.

A selection of reference data follows.
Molecule | Class
N#Cc1ccc(Oc2ccc3c(c2)COB3O)cc1 [PCM-0215118] | y
O=C1C(=O)c2ccccc2C(O)=C1C1CCC(c2ccc(Cl)cc2)CC1 (stereo not shown) [PCM-0214729] | y
COC(=O)c1ccccc1O [PCM-0215919] | n

Task: Could you please find out whether CCCCOCc1ccc(O)c(OC)c1 [PCM-0215915] has inhibition at 10 µM that meets -10% or exceeds it?
Result: n

Task: Likewise for C[C@@H]1CC[C@@]2(OC1)O[C@H]1C[C@H]3[C@@H]4CC=C5C[C@@H](O[C@@H]6O[C@H](CO)[C@@H](O)[C@H](O)[C@H]6O[C@@H]6O[C@@H](C)[C@H](O)[C@@H](O)[C@H]6O)CC[C@]5(C)[C@H]4CC[C@]3(C)[C@@]1(O)[C@@H]2C [PCM-0216535] ?
Result: y

Task: Likewise for O=C(O)CNC(=O)c1c(O)c2ccccc2n(Cc2ccccc2)c1=O [PCM-0095405] ?
Result: n

Task: Likewise for C[C@@]12C[C@@]3(O)O[C@@H](O1)[C@]1(COC(=O)c4ccccc4)[C@H]3C[C@@]12O[C@@H]1O[C@H](COC(=O)c2ccccc2)[C@@H](O)[C@H](O)[C@H]1O [PCM-0216426] ?
Result: n
